Target protein (sequence): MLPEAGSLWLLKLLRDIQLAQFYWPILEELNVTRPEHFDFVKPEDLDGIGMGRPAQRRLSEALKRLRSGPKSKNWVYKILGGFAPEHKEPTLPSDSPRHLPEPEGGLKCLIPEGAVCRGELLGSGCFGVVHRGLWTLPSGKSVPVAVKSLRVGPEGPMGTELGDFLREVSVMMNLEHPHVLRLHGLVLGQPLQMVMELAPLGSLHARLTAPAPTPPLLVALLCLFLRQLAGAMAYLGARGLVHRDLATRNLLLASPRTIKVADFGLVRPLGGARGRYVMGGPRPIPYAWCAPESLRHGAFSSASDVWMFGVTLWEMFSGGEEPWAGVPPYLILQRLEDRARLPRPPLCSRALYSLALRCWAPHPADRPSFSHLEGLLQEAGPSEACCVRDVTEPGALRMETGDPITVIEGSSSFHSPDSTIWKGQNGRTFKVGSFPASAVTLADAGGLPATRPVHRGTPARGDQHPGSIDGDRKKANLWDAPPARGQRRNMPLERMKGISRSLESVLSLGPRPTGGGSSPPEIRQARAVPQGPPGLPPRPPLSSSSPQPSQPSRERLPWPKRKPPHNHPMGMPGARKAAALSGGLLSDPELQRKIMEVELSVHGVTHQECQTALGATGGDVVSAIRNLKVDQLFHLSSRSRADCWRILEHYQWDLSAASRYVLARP
pIC50: −log10 of the molar value.
Measured Metric: pIC50

Compound: CN1C(=O)[C@@H](N2CCc3c(nn(Cc4ccccc4)c3Br)C2=O)COc2ccccc21 [TP-030-2]
Numeric Value: 6.00

Cited source: ChEMBL document CHEMBL4507326
